Values compiled from ChEMBL document CHEMBL2150966.

Assay: in vivo
Details: BALB/c, mouse, plasma, po, 100 mg/kg
Is concentration at 4 h at least 9 µM? Then y. If not, n.

Study these solved cases before continuing.
>>> print(df.to_string())
                               smiles_entry  discrete_label
0  CNC(=O)c1nc(-c2ccc(Cl)c(S(=O)(=O)Nc3cccc(F)c3F)c2)cnc1N               y
1  CNC(=O)c1nc(-c2ccc(Cl)c(S(=O)(=O)Nc3ccc(Cl)cc3Cl)c2)cnc1N               n
2  CS(=O)(=O)N1CCN(Cc2cc3nc(-c4cccc5[nH]ncc45)nc(N4CCOCC4)c3s2)CC1               n

Let's switch to this molecule now.
Incoming: Determine whether measured concentration at 4 h meets or exceeds 9 µM for "CNC(=O)c1nc(-c2ccc(Cl)c(S(=O)(=O)Nc3ccc(F)cc3Cl)c2)cnc1N"
Outgoing: y

----------
Assay: Plasma concentration in C57BL6 mouse at 100 mg/kg, po after 1 hr
Format: ADME, organism-based
Parameters: dose 100 mg/kg, route oral
I'd appreciate it if you could supply concentration at 1 h values for the items below.
Numbers only, in nM.

>>> print(df.to_string())
                               smiles_entry    measured_parameter  unit_name  recorded_measurement
0  CNC(=O)c1nc(-c2ccc(Cl)c(S(=O)(=O)Nc3cccc(F)c3)c2)cnc1N  concentration at 1 h         nM                  1600
1  CNC(=O)c1nc(-c2ccc(Cl)c(S(=O)(=O)Nc3cccc(OC)c3)c2)cnc1N  concentration at 1 h         nM                   700
2  CNC(=O)c1nc(-c2ccc(Cl)c(S(=O)(=O)Nc3ccccc3Cl)c2)cnc1N  concentration at 1 h         nM                 59100

Hello, I would appreciate it if you could give concentration at 1 h for each entry below.
1. CNC(=O)c1nc(-c2ccc(Cl)c(S(=O)(=O)Nc3cccc(Cl)c3Cl)c2)cnc1N
2. CNC(=O)c1nc(-c2ccc(Cl)c(S(=O)(=O)Nc3cccc(C(F)(F)F)c3)c2)cnc1N
3. CNC(=O)c1nc(-c2ccc(Cl)c(S(=O)(=O)Nc3cccc(F)c3Cl)c2)cnc1N
4. CNC(=O)c1nc(-c2ccc(Cl)c(S(=O)(=O)Nc3ccc(F)cc3Cl)c2)cnc1N
5. CNC(=O)c1nc(-c2cccc(S(=O)(=O)Nc3cccc(Cl)c3)c2)cnc1N

Outgoing:
1. 173000
2. 1700
3. 237000
4. 64800
5. 600

Incoming: Hello, please tell me recorded concentration at 1 h for this one: "CNC(=O)c1nc(-c2ccc(Cl)c(S(=O)(=O)Nc3cccc(Cl)c3)c2)cnc1N"
Outgoing: 1300

----------
Assay: Plasma concentration in C57BL6 mouse at 100 mg/kg, po after 1 hr
Type: ADME, organism-based
Set-up: dose 100 mg/kg, route oral
Label key: Satisfied means concentration at 1 h under 10 µM; Not satisfied means concentration at 1 h of 10 µM or more.

In [3]: df
Out[3]:
                               smiles_entry  discrete_label
0  CNC(=O)c1nc(-c2ccc(Cl)c(S(=O)(=O)Nc3ccc(Cl)cc3Cl)c2)cnc1N   Not satisfied

Let's switch to this compound now.
Incoming: Quick check: does "COc1ccc(-c2cccc(S(=O)(=O)N3CCN(c4nccnc4-c4ccc(OC)cc4)CC3)c2)cc1" have concentration at 1 h under 10 µM?
Outgoing: Satisfied
